# Test system: PRP4
# test-settings: concentration: 1 μM, replicates: in singlicate; n = 1;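 further: KINOMEscan kinase panel screen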
experimental-endpoint: %Inh (%)

INSERT INTO results (smi, readout_value) VALUES
  ('O=C(Nc1cccc(-c2nn3ncccc3c2-c2ccnc(Nc3cccc(C(F)(F)F)c3)n2)c1)c1c(F)cccc1F', 71),
  ('COc1cc2ncn(-c3cc(OCc4sccc4Cl)c(C(N)=O)s3)c2cc1OC', 26),
  ('Nc1nc(-c2ccc3c(N)n[nH]c3c2)cc(N2CCCC2)n1', 46),
  ('Cn1cc(-c2ccc3c(c2)CCN3C(=O)Cc2ccccc2Cl)c2c(N)ncnc21', 8);

----------
# Test system: ULK2
# test-settings: concentration: 1 μM, replicates: in singlicate; n = 1
experimental-endpoint: %Inh (%)

INSERT INTO results (molecule, measured_on, experimental_endpoint, readout_value) VALUES
  ('NS(=O)(=O)c1cccc(-c2ccc3nccc(-c4cccc(S(N)(=O)=O)c4)c3c2)c1', 'ULK2', '%Inh', 81),
  ('NS(=O)(=O)CCc1cccc(Nc2nccc(-c3c(-c4cccc(NC(=O)c5c(F)cccc5F)c4)nn4ccccc34)n2)c1', 'ULK2', '%Inh', 0),
  ('N#Cc1ccc(-c2cc(-c3c[nH]nc3-c3ccccn3)ccn2)cc1', 'ULK2', '%Inh', 0),
  ('COc1cc(Nc2nccc(N3CCC(NC(=O)c4cccc(NC(C)=O)c4)C3)n2)cc(OC)c1OC (stereo not drawn)', 'ULK2', '%Inh', 0),
  ('N#Cc1c(N2CCOCC2)sc(-c2ccn[nH]2)c1-c1ccc(Cl)cc1', 'ULK2', '%Inh', 15),
  ('CN(C1=C(c2ccccc2)C(=O)NC1=O)c1ccccc1', 'ULK2', '%Inh', 8),
  ('O=c1cc(N2CCOCC2)nc2n(Cc3cccc(F)c3)ccn12', 'ULK2', '%Inh', 0),
  ('CCCCCc1nc2c(N)ncnc2n1CCCCC', 'ULK2', '%Inh', 12),
  ('CC(=O)Nc1ccc(COc2ccc(Nc3ccnc4cc(-c5ccccn5)ccc34)cc2)cc1.Cl', 'ULK2', '%Inh', 0),
  ('Cn1cc(-c2ccc3c(c2)CCN3C(=O)Cc2ccccc2Cl)c2c(N)ncnc21', 'ULK2', '%Inh', 0),
  ('COc1ccc(CNC(=O)NC2CCN(c3ccnc(Nc4ccc(OC)cc4)n3)C2)cc1 (stereo not drawn)', 'ULK2', '%Inh', 0),
  ('CCn1cnc2c(N)ncnc21', 'ULK2', '%Inh', 21),
  ('O=C(NCCNc1ccnc(Nc2ccc(F)cc2)n1)Nc1ccccc1F', 'ULK2', '%Inh', 0),
  ('Cc1cn2c(=O)cc(N3CCOCC3)nc2n1Cc1cccc(Cl)c1Cl', 'ULK2', '%Inh', 0),
  ('Nc1nc(-c2ccc3c(N)n[nH]c3c2)cc(N2CCCC2)n1', 'ULK2', '%Inh', 0),
  ('CC(C)(CN)c1nc(-c2ccc(Cl)c(O)c2)c(-c2ccncc2)[nH]1.O=C(O)C(F)(F)F', 'ULK2', '%Inh', 0),
  ('Cc1c2ccc(N(C)c3ccnc(Nc4cccc(S(N)(=O)=O)c4)n3)cc2nn1Cc1ccccc1.Cl.Cl', 'ULK2', '%Inh', 0),
  ('CN1c2ccc(NCc3ccc(F)cc3)cc2-c2c(cnn2C)S1(=O)=O', 'ULK2', '%Inh', 0);
